System Under Test: opioid receptor mu (Homo sapiens)
Construct: expressed in transfected cells
Assay Overview: GTPγ[35S] binding assay, antagonism of endorphin
Assay type: biochemical
Measurement Setup: read-out: Mu functional Ki (GTPγ[35S] binding)
pKi: −log10 of the molar value.
Reported Metric: pKi

compound="Cc1cc(C(N)=O)ccc1-c1c(C)cc(CNC2Cc3ccccc3C2)cc1Cl [4B-84]" value=10.84

(I) Cc1cc(C(N)=O)ccc1-c1ccc(CNCC2CCOCC2)cc1 [4B-40]
(II) Cc1ncsc1CCNCc1ccc(-c2cccc(C(N)=O)c2)c(Cl)c1 [6A-08]
(III) NC(=O)c1ccc(-c2ccc(CN[C@H]3CCc4ccccc43)cc2)c(Cl)c1 [4B-38]
rank_up(items): orders items by reported pKi in ascending numerical order. # list labels per requested ordering
I, II, III
(I: 7.32, II: 8.06, III: 8.48)

---

System Under Test: opioid receptor mu (Homo sapiens, UniProt P35372)
Construct: expressed in transfected cells
Sequence (P35372 whole entry): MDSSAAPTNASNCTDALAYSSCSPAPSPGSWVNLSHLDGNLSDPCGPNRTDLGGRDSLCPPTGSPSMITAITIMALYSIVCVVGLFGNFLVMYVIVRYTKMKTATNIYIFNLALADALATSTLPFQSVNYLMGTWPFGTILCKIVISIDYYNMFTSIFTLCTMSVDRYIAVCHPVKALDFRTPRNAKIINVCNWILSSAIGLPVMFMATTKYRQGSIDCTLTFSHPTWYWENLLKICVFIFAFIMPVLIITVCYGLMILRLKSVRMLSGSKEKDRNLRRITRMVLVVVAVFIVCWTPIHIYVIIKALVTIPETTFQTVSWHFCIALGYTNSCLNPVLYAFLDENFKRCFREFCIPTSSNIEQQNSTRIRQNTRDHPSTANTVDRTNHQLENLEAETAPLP
Assay Overview: GTPγ[35S] binding assay, antagonism of endorphin
Type: biochemical
Measurement Setup: read-out: Mu functional Ki (GTPγ[35S] binding)
pKi: −log10 of the molar value. Where a name gives a salt, the structure may show the parent alone.
Reported Metric: pKi

compound=CC(C)CC[NH2+]Cc1ccc(-c2cccc(C(N)=O)c2)c(F)c1 reported_metric=pKi value=7.85

(1) Cc1cc(-c2ncn[nH]2)ccc1-c1ccc(CNCCC(C)C)cc1F
(2) Cc1cc(C(N)=O)ccc1-c1cc(F)c(CNCC2CCOCC2)c(F)c1
Which record shows the lower pKi: the first, 1 , or the second, 2 ? // caller expects the label of the chosen entry
2

(P) COc1cc(C(N)=O)ccc1-c1ccc(CNCCC(C)C)cc1
(Q) Cc1cc(C(N)=O)ccc1-c1ccc(CNCCC(C)C)c(OCc2ccccc2)c1
(R) Cc1cc(CNC2Cc3ccccc3C2)cc(Cl)c1-c1ccc(C(N)=O)cc1Cl
(S) NC(=O)c1ccc(-c2cc(F)c(CNCCC3CCOCC3)c(F)c2)c(Cl)c1
# desc sort on pKi across 4 compounds Note for the reader: the ranking is given by listing the labels in the order requested.
R, Q, S, P

(a) CC(C)CCNCc1ccc(-c2ccc(-c3ncn[nH]3)cc2)c(F)c1
(b) Cc1cc(C(N)=O)ccc1-c1ccc(CNCC2CCc3ccccc3O2)cc1 (stereo not drawn)
(c) Cc1cc(C(N)=O)ccc1-c1ccc(CNC2Cc3ccccc3C2)c(OCc2ccccc2)c1
Ascending by pKi, please. When ranking, write the labels in the order the request describes.
a, b, c
(a: 8.60, b: 8.84, c: 10.05)

(1) Cc1cc(-c2nnc[nH]2)ccc1-c1ccc(C[NH2+]CCC(C)C)cc1 [E7-01, hydrochloride]
(2) Cc1cc(CNCCC2CCOCC2)ccc1-c1ccc(C(N)=O)cc1C
(3) CC[C@@H](NCc1c(F)cc(-c2ccc(C(N)=O)cc2C)cc1F)c1ccccn1
Thanks in advance: please rank these 3 entries by pKi, highest to lowest. Would you mind listing the labels in the order asked for?
2, 1, 3
(2: 8.70, 1: 8.41, 3: 6.86)

(a) NC(=O)c1cccc(-c2ccc(CN[C@H]3c4ccccc4C[C@H]3O)cc2Cl)c1
(b) Cc1cc(C(N)=O)ccc1-c1ccc(CNCC2Cc3ccccc3C2)cc1
(c) CC(C)CCNCc1ccc(-c2ccc(C(N)=O)cc2Cl)cc1Cl
hey, can you rank those compounds up there by pKi? biggest number first please Please express your ranking as an ordered list of the labels.
b, a, c
(b: 8.88, a: 8.53, c: 7.97)

(A) CCc1cc(C(N)=O)ccc1-c1c(C)cc(CNCCC2CCOCC2)cc1C
(B) Cc1cc(C(N)=O)ccc1-c1cc(F)c(CNCCC(C)C)cc1F
(C) NC(=O)c1ccc(-c2ccc(CNCCC3CCCCO3)cc2Cl)c(Cl)c1 (stereo not drawn)
(D) Cc1cc(C(N)=O)ccc1-c1c(C)cc(CNCCC(C)C)cc1Cl
Please rank these compounds by pKi in descending order. Quick reminder: the answer is the labels in the order asked.
D, A, C, B

(a) Cc1cc(CNCCC(C)C)ccc1-c1ccc(C(N)=O)cc1Cl
(b) CC(C)CCNCc1cc(F)c(-c2ccc(C(N)=O)cc2Cl)cc1F
(c) Cc1cc(CNCCC(C)C)ccc1-c1ccc(-c2ncn[nH]2)cc1
(d) NC(=O)c1ccc(-c2ccc(CNCCC3CCCC3)cc2)c(Cl)c1
Hello, I need these entries ordered by pKi, highest reading first. Thanks! Labels, requested order.
c, d, a, b

(A) CC(C)CCNCc1ccc(-c2ccc(-c3ncn[nH]3)cc2C(F)(F)F)cc1
(B) CC(C)CCNCc1ccc(-c2ccc(C(N)=O)cc2OCc2ccccc2)cc1
(C) CC(C)CCNCc1ccc(-c2cc(-c3ncn[nH]3)ccc2F)c(F)c1
(D) NC(=O)c1ccc(-c2ccc(CNC3Cc4ccccc4C3)c(F)c2)c(Cl)c1
Ascending by pKi, please: list the compounds accordingly. Quick reminder: the answer is the labels in the order asked.
B, A, C, D
(B: 7.40, A: 7.85, C: 8.39, D: 9.65)

---

System Under Test: opioid receptor delta (Homo sapiens, UniProt P41143)
Construct: expressed in transfected cells
Sequence (P41143 whole entry): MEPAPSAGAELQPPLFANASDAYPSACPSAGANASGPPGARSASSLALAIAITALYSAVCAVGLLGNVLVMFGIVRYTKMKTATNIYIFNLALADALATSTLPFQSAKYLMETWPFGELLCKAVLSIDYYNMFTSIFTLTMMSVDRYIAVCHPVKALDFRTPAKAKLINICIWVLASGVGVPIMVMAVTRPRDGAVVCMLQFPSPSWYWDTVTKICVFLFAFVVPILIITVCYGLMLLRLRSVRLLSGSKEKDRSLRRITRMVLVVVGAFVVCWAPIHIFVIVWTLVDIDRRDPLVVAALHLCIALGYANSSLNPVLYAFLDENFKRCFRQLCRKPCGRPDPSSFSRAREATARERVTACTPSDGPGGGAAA
Assay Overview: GTPγ[35S] binding assay, antagonism of BW-373U86
Type: biochemical
Measurement Setup: average Ki; antagonism of BW-373U86 (1 nM) stimulated GTPγ[35S] binding, delta opioid receptor membranes; read-out: Delta functional (GTPγ[35S] binding Ki)
pKi: −log10 of the molar value.
Reported Metric: pKi

structure_as_smiles=CC(C)CCNCc1cc(F)c(-c2cccc(C(N)=O)c2)cc1F value=5.50
structure_as_smiles=Cc1cc(C(N)=O)ccc1-c1ccc(CNCCC(C)C)cn1 value=8.36
structure_as_smiles=Cc1cc(C(N)=O)ccc1-c1ccc(CNCCCc2ccccc2)cc1.Cl value=9.08
structure_as_smiles=CC(C)CCNCc1ccc(-c2cc(F)cc(C(N)=O)c2)cc1 value=7.67
structure_as_smiles=Cc1cc(CNCCC(C)C)ccc1-c1ncc(C(N)=O)cc1C value=8.03
structure_as_smiles=Cc1cc(C(N)=O)ccc1-c1ccc(CNCCC(C)C)nc1 value=7.93
structure_as_smiles=CC(C)CCNCc1ccc(-c2cccc(C(N)=O)c2)c(C#N)c1 value=7.86
structure_as_smiles=CC(C)CCNCc1ccc(-c2cc(C(N)=O)ccc2F)c(F)c1.Cl value=8.02
structure_as_smiles=Cc1cc(C(N)=O)ccc1-c1ccc(CNCCC(C)C)c(F)c1 value=8.71
structure_as_smiles=CC(C)CCNCc1ccc(-c2cc(C(N)=O)ccc2F)cc1F value=7.76

(A) CC(C)CCNCc1c(F)cc(-c2ccc(C(N)=O)cc2)cc1F
(B) Cc1cc(C(N)=O)ccc1-c1ccc(CNCCC(C)C)cc1F.Cl
Compare the recorded pKi of A and B ; state which is larger. // caller expects the label of the chosen entry
B
(B: 8.29, A: 5.52)

(1) Cc1cc(CNCCC(C)C)ccc1-c1ccc(C(N)=O)cc1
(2) CC(C)CCNCc1ccc(-c2cccc(C(N)=O)c2)cc1Cl
Please let me know which one, 1 or 2 , has a lower measured pKi value. Respond with the label that goes with your answer.
2
(2: 7.47, 1: 7.87)

(1) Cc1cc(CNCCC(C)C)cc(C)c1-c1cccc(C(N)=O)c1
(2) COc1cc(-c2cccc(C(N)=O)c2)ccc1CNCCC(C)C
(3) CC(C)CCNCc1ccc(-c2cccc(C(N)=O)c2)cn1
(4) CC(C)CCNCc1ccc(-c2ccc(F)c(C(N)=O)c2)cc1
(5) CC(C)CCNCc1ccc(-c2cccc(C(N)=O)c2)cc1O
I would appreciate it if you could sort these 5 compounds by pKi, starting from the smallest number. Provide your answer as the labels ordered per the instruction.
3, 2, 1, 4, 5
(3: 7.66, 2: 7.97, 1: 8.59, 4: 8.81, 5: 10.45)

---

System Under Test: opioid receptor mu (Homo sapiens)
Construct: expressed in transfected cells
Assay Overview: GTPγ[35S] binding assay, antagonism of endorphin
Assay type: biochemical
Measurement Setup: read-out: Mu functional (GTPγ[35S] binding Ki)
Reported Metric: Ki (nM)

compound="Cc1cc(C(N)=O)ccc1-c1cc(F)c(CNCCC(C)C)c(F)c1.Cl [E1-01, hydrochloride salt]" value=2.1

(a) Cc1cc(C(N)=O)ccc1-c1ccc(CNC2CCc3ccccc32)cc1 (centres unmarked)
(b) CC(C)CCNCc1ccc(-c2ccc(C(N)=O)cc2)cc1
(c) Cc1cc(C(N)=O)cc(C)c1-c1ccc(CNCCC(C)C)cc1
(d) Cc1cc(C(N)=O)ccc1-c1ccc(CNC(C)c2ccc3ccccc3c2)cc1 (centres unmarked)
Please list these in order of increasing Ki. Thank you! Provide your answer as the labels ordered per the instruction.
a, d, c, b

---

System Under Test: opioid receptor kappa (Homo sapiens, UniProt P41145)
Construct: expressed in transfected cells
Sequence (P41145 whole entry): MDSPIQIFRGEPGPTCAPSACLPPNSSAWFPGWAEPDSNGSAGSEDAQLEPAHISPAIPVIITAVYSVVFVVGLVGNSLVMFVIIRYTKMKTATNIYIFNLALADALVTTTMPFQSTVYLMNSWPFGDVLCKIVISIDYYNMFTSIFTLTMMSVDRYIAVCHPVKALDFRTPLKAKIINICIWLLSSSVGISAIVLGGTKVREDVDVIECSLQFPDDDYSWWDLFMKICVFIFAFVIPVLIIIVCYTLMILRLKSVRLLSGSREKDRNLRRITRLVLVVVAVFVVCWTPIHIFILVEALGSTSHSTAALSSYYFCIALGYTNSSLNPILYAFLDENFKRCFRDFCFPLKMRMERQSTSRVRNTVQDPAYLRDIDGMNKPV
Assay Overview: GTPγ[35S] binding assay, antagonism of dynorphin-A
Type: biochemical
Measurement Setup: read-out: Kappa functional Ki (GTPγ[35S] binding)
Reported Metric: Ki (nM)

The examples below pair each entry with its known result.
compound=Cc1cc(-c2ncn[nH]2)ccc1-c1ccc(CNCCC(C)C)cc1F unit_annotation=nM value=9.25
compound=CC(C)CCNCc1ccc(-c2cc(-c3ncn[nH]3)ccc2F)c(F)c1 unit_annotation=nM value=2.71
compound=CC(C)CCNCc1ccc(-c2ccc(C(N)=O)cc2Cl)cc1Cl unit_annotation=nM value=2.15

(1) NC(=O)c1ccc(-c2ccc(CNC[C@H]3CCCO3)cc2Cl)c(Cl)c1
(2) Cc1cc(C(N)=O)ccc1-c1ccc(CN[C@H](C)c2ccccc2)cc1
(3) CC(C)CCNCc1ccc(-c2ccc(C(N)=O)cc2O)cc1
(4) COc1cc(-c2ccc(C(N)=O)cc2C)ccc1CNC1Cc2ccccc2C1
Sort these compounds on Ki so the largest reading comes first. Please list each label once, in the requested order.
3, 2, 1, 4
(3: 80.6 nM, 2: 13.5 nM, 1: 8.48 nM, 4: 0.366 nM)
